Source: patent US11584714B2

Examples of compounds with documented pKi follow.
# TEST_TARGET: mMASP-2 (Mus musculus (Mouse))
# Sequence (Q91WP0 20-685): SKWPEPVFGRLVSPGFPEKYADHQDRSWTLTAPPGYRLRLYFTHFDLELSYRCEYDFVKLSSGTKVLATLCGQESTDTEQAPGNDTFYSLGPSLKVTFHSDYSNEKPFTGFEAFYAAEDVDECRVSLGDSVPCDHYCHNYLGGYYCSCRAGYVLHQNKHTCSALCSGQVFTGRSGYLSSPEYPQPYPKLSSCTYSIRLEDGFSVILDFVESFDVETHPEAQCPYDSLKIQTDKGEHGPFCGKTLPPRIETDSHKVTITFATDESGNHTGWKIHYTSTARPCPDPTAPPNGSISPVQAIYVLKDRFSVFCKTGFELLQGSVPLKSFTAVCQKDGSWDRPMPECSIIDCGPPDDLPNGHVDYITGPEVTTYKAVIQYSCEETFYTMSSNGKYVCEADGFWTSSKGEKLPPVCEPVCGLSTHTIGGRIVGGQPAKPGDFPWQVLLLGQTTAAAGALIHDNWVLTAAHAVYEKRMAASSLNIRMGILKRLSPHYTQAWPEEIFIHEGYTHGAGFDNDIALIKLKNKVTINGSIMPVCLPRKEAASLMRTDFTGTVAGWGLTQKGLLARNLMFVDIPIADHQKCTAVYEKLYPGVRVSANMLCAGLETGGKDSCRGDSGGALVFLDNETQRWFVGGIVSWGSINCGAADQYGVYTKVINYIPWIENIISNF
# METHOD: Enzymatic inhibition of mMASP-2
# Type: biochemical
# DETAILS: read-out: mMASP-2 Ki
pKi: −log10 of the molar value. Structures can show the parent of a compound that is named as a salt.

// known answers, use as guide
Exercise: Name the reported pKi value associated with the compound C[C@H](NC(=O)[C@H]1C[C@@H](c2cccc(C(F)(F)F)c2)CN1)C(=O)NCc1ccc(C(=N)N)cc1 [compound 1276]
Solution: > 6.30

Exercise: Name the reported pKi value associated with the compound Cc1cc(Cl)cc(CNC(=O)[C@H](C)NC(=O)[C@H]2C[C@H](c3ccccc3)CN2)c1 [compound 1333, Hydrochloride]
Solution: 4.60 to 5.00

Exercise: Name the reported pKi value associated with the compound CC[C@H](NC(=O)[C@H](N)CCc1ccccc1)C(=O)NCc1ccc(C(=N)N)cc1 [compound 1289]
Solution: > 6.30

Exercise: Name the reported pKi value associated with the compound Cc1cccc([C@H]2CN[C@@H](C(=O)N[C@@H](C)C(=O)NCc3ccc(N)nc3C)C2)c1 [compound 1257]
Solution: 4.60 to 5.00

Continuing:
Exercise: Name the reported pKi value associated with the compound Cc1cc(Cl)cc(CNC(=O)[C@H](C)NC(=O)[C@H]2C[C@H](Cc3ccccc3-c3ccc(Cl)s3)CN2)c1O [compound 1408, Hydrochloride]
Solution: 5.00 to 5.60

Exercise: Name the reported pKi value associated with the compound C[C@H](NC(=O)[C@H](N)C/C=C/c1ccccc1)C(=O)NCc1ccc(N)nc1 [compound 1261]
Solution: 4.60 to 5.00

Exercise: Name the reported pKi value associated with the compound Cc1nc(N)ccc1CNC(=O)[C@H](C)NC(=O)[C@H]1C[C@H](Cc2ccc(Br)cc2)CN1 [compound 1350, Dihydrochloride]
Solution: > 6.30

Exercise: Name the reported pKi value associated with the compound C[C@H](NC(=O)[C@H]1C[C@H](Cc2ccccc2)CN1)C(=O)NCc1cnc2c(c1)c(Cl)cn2C [compound 1450, Dihydrochloride]
Solution: > 6.30

Exercise: Name the reported pKi value associated with the compound Cc1cc(C)cc(CC[C@@H](N)C(=O)N[C@@H](C)C(=O)NCc2ccc(C(=N)N)cc2)c1 [compound 1073]
Solution: > 6.30

Exercise: Name the reported pKi value associated with the compound Cc1nc(N)ccc1CNC(=O)[C@H](C)NC(=O)[C@H]1C[C@H](Cc2ccc(N3CCCC3=O)cc2)CN1 [compound 1391, Di-trifluoroacetate salt]
Solution: > 6.30

Exercise: Name the reported pKi value associated with the compound Cc1nc(N)ccc1CNC(=O)[C@H](C)NC(=O)[C@H]1C[C@H](Cc2ccc3nsnc3c2)CN1 [compound 1449, Di-trifluoroacetate salt]
Solution: > 6.30

Exercise: Name the reported pKi value associated with the compound C[C@H](NC(=O)[C@H](N)CCc1ccccc1)C(=O)NCCc1ccnc(N)c1 [compound 1016, Dihydrochloride]
Solution: > 4.60

Exercise: Name the reported pKi value associated with the compound Cc1nc(N)ccc1CNC(=O)[C@H](C)NC(=O)[C@H]1C[C@H](c2cccc3ccccc23)CCN1 [compound 1342, Dihydrochloride]
Solution: 5.60 to 6.30

* * *

# TEST_TARGET: MASP-2 (CCP1-CCP2-SP) (Homo sapiens (Human), UniProt O00187)
# Sequence (O00187 445-686): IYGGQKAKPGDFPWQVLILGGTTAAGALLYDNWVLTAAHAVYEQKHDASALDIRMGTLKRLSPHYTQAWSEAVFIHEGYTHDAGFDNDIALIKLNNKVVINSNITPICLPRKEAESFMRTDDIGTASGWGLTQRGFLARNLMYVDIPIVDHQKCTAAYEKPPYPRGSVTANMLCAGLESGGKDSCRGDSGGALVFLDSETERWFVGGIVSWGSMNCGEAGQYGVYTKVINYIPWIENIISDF
# METHOD: biochemical
# Assay type: biochemical
pKi: −log10 of the molar value. Counter-ions that a name gives are not always drawn.
Examples of compounds with documented pKi follow.

// known answers, use as guide
Exercise: Name the reported pKi value associated with the compound CCCOC(=O)NC(=N)c1ccc(CNC(=O)[C@H](C)NC(=O)[C@H]2C[C@H](c3ccccc3)CN2)cc1
Solution: 5.00 to 5.60

Exercise: Name the reported pKi value associated with the compound C[C@H](NC(=O)[C@H](N)CCc1ccccc1)C(=O)NCc1ccc(CN)nc1
Solution: 5.00 to 5.60

Exercise: Name the reported pKi value associated with the compound C[C@H](NC(=O)[C@H]1C[C@@H](c2ccccc2)CCN1)C(=O)NCc1ccccc1
Solution: 5.00 to 5.60

Exercise: Name the reported pKi value associated with the compound Cc1nc(N)ccc1CNC(=O)[C@H](C)NC(=O)[C@@H](CCc1ccccc1)NCCc1cccc(O)c1 [compound 1349, Dihydrochloride]
Solution: 5.60 to 6.30

Exercise: Name the reported pKi value associated with the compound CC(=O)Nc1ccc(CCN[C@H](CCc2ccccc2)C(=O)N[C@@H](C)C(=O)NCc2ccc(N)nc2C)cc1 [compound 1368, Dihydrochloride]
Solution: 5.60 to 6.30

Exercise: Name the reported pKi value associated with the compound Cc1nc2cc(CNC(=O)[C@H](C)NC(=O)[C@H]3C[C@H](c4ccccc4)CN3)cc(Cl)c2[nH]1 [compound 1418, Trifluoroacetate salt]
Solution: 5.00 to 5.60

// moving on: another record for pKi
Exercise: Name the reported pKi value associated with the compound C[C@H](NC(=O)[C@H](N)CCc1ccccc1)C(=O)NCc1cc(Br)ccc1O
Solution: 5.60 to 6.30

* * *

# TEST_TARGET: human α-thrombin (Homo sapiens (Human))
# METHOD: Enzymatic assay for thrombin (Boc-VPR-AMC substrate)
# Type: biochemical
# DETAILS: read-out: Thrombin Ki
pKi: −log10 of the molar value.
ENDPOINT_NAME: pKi

Exercise: Test system human α-thrombin (Homo sapiens (Human)); read-out pKi; what value for Cc1nc(N)ccc1CNC(=O)[C@H](C)NC(=O)[C@@H]1C[C@@H](Cc2ccccc2)CN1 [compound 1282] ?
Solution: < 4.60

// moving on: another record for pKi
Exercise: Test system human α-thrombin (Homo sapiens (Human)); read-out pKi; what value for Cc1nc(N)ccc1CNC(=O)[C@H](C)NC(=O)[C@H]1C[C@@H](c2ccccc2)CCN1 [compound 1253] ?
Solution: < 4.60

* * *

# TEST_TARGET: MASP-2 (CCP1-CCP2-SP) (Homo sapiens (Human))
# METHOD: biochemical
# Type: biochemical
# DETAILS: selectivity for MASP-2 inhibition versus thrombin
Where a name gives a salt, the structure may show the parent alone.
ENDPOINT_NAME: MASP-2 vs. thrombin selectivity

// known answers, use as guide
Exercise: Name the reported MASP-2 vs. thrombin selectivity value associated with the molecule Cc1nc(N)ccc1CNC(=O)[C@H](C)NC(=O)[C@H]1C[C@H](Cc2ccc(Cl)s2)CN1 [compound 1454, Dihydrochloride]
Solution: *** (≥25 to <100-fold)

Exercise: Name the reported MASP-2 vs. thrombin selectivity value associated with the molecule Cc1nc(N)ccc1CNC(=O)[C@H](C)NC(=O)[C@H]1C[C@H](Cc2ccc(F)c3ccccc23)CN1 [compound 1423, Dihydrochloride]
Solution: **** (≥100-fold)

Exercise: Name the reported MASP-2 vs. thrombin selectivity value associated with the molecule Cc1cccc([C@H]2CN[C@@H](C(=O)N[C@@H](C)C(=O)NCc3ccc(N)nc3C)C2)c1
Solution: *** (≥25 to <100-fold)

Exercise: Name the reported MASP-2 vs. thrombin selectivity value associated with the molecule C[C@H](NC(=O)[C@H]1C[C@H](Cc2ccccc2)CN1)C(=O)NCc1cc(Cl)cc(Cl)c1O [compound 1448, hydrochloride]
Solution: **** (≥100-fold)

Exercise: Name the reported MASP-2 vs. thrombin selectivity value associated with the molecule COc1ccc(-c2c[nH]c(C(=O)N[C@@H](C)C(=O)NCc3ccc(C(=N)N)cc3)c2)cc1
Solution: *** (≥25 to <100-fold)

// moving on: another record for MASP-2 vs. thrombin selectivity
Exercise: Name the reported MASP-2 vs. thrombin selectivity value associated with the molecule COc1ccc2cc(C[C@@H]3CN[C@@H](C(=O)N[C@@H](C)C(=O)NCc4ccc(N)nc4C)C3)ccc2c1 [compound 1453, Dihydrochloride]
Solution: **** (≥100-fold)

* * *

Examples of compounds with documented Ki follow.
# TEST_TARGET: human α-thrombin (Homo sapiens (Human), UniProt P00734)
# METHOD: Enzymatic assay for thrombin (Boc-VPR-AMC substrate)
# Type: biochemical
# DETAILS: read-out: Thrombin Ki
Where a name gives a salt, the structure may show the parent alone.

// known answers, use as guide
Exercise: Name the reported Ki value associated with the compound Cc1cc(Cl)cc(CNC(=O)[C@H](C)NC(=O)[C@H]2C[C@H](Cc3ccc(Cl)s3)CN2)c1O [compound 1456, Dihydrochloride]
Solution: > 25 µM

Exercise: Name the reported Ki value associated with the compound C[C@H](NC(=O)[C@@H](CCc1ccccc1)NCc1ccc2cc(O)ccc2c1)C(=O)NCc1ccc(C(=N)N)cc1 [compound 1256]
Solution: < 0.5 µM

Exercise: Name the reported Ki value associated with the compound Cc1cc(N)ncc1CNC(=O)[C@H](C)NC(=O)[C@H](N)CCc1ccccc1 [compound 1243]
Solution: > 25 µM

Exercise: Name the reported Ki value associated with the compound Cc1cc(Cl)cc(CNC(=O)[C@H](C)NC(=O)[C@H]2C[C@H](c3ccccc3)CN2)c1O [compound 1298, Hydrochloride]
Solution: > 25 µM

Exercise: Name the reported Ki value associated with the compound C[C@H](NC(=O)[C@H]1C[C@H](Cc2ccccc2)CN1)C(=O)NCc1cc(Cl)cc(Cl)c1O [compound 1448, hydrochloride]
Solution: > 25 µM

Exercise: Name the reported Ki value associated with the compound C[C@H](NC(=O)[C@H]1C[C@@H](Cc2ccccc2)CN1)C(=O)NCc1ccc(C(=N)N)cc1 [compound 1284]
Solution: < 0.5 µM

Exercise: Name the reported Ki value associated with the compound C[C@H](NC(=O)[C@H]1C[C@H](c2ccccc2)CN1)C(=O)NCc1cnc2cccc(Cl)c2c1 [compound 1457]
Solution: > 25 µM

Exercise: Name the reported Ki value associated with the compound N=C(N)c1ccc(CNC(=O)[C@@H]2CCN2C(=O)[C@H](N)CC2CCCCC2)cc1 [compound 1158]
Solution: < 0.5 µM

Continuing:
Exercise: Name the reported Ki value associated with the compound C[C@H](NC(=O)[C@H](N)CCc1ccccc1)C(=O)NCc1cnc(N)c(F)c1 [compound 1267]
Solution: > 25 µM

Exercise: Name the reported Ki value associated with the compound C[C@H](NC(=O)[C@H](N)CCc1ccccc1)C(=O)NCc1ccc(C(=N)N)nc1 [compound 1270]
Solution: < 0.5 µM

Exercise: Name the reported Ki value associated with the compound CCCOC(=O)NC(=N)c1ccc(CNC(=O)[C@H](C)NC(=O)[C@H]2C[C@H](c3ccccc3)CN2)cc1 [compound 1263]
Solution: > 25 µM

Exercise: Name the reported Ki value associated with the compound COc1ccccc1CC[C@@H](N)C(=O)N[C@@H](C)C(=O)NCc1ccc(C(=N)N)cc1 [compound 1074]
Solution: < 0.5 µM

Exercise: Name the reported Ki value associated with the compound N=C(N)c1ccc(CNC(=O)[C@@H]2CCN2C(=O)[C@@H](CCc2ccccc2)NCC(=O)O)cc1 [compound 1124]
Solution: < 0.5 µM

Exercise: Name the reported Ki value associated with the compound Cc1ccccc1CC[C@@H](N)C(=O)N[C@@H](C)C(=O)NCc1ccc(C(=N)N)cc1 [compound 1045]
Solution: < 0.5 µM
